Answer each item with its documented logP.
One number for each entry.

Completed entries (count: 5):
ClC1=C(Cl)[C@]2(Cl)[C@@H]3[C@@H]4C[C@@H]([C@H]5O[C@@H]45)[C@@H]3[C@@]1(Cl)C2(Cl)Cl (single isomer, unassigned) :: 5.4
CCCCC(CC)COC(=O)c1ccccc1C(=O)OCC(CC)CCCC (stereo not drawn) :: 7.6
Clc1c(Cl)c(Cl)c(-c2ccccc2)c(Cl)c1Cl :: 6.75
Clc1c(Cl)c(Cl)c(Cl)c(Cl)c1Cl :: 5.73
ClC1=C(Cl)[C@]2(Cl)[C@H]3[C@H]([C@@H]4C=C[C@H]3C4)[C@@]1(Cl)C2(Cl)Cl (racemic) :: 6.5

Would you mind listing logP for each of the following compounds?
1. CCOP(=S)(OCC)Oc1cc(Cl)c(Br)cc1Cl
2. CCCCc1ccccc1
3. Clc1cccc(Cl)c1-c1c(Cl)cccc1Cl
4. Clc1cc(Cl)c(Cl)c(-c2c(Cl)c(Cl)cc(Cl)c2Cl)c1Cl
5. COP(=S)(OC)Oc1cc(Cl)c(I)cc1Cl
6. Clc1ccc(-c2ccc(Cl)c(Cl)c2)cc1Cl
7. CCc1ccc2c(c1)C(=O)c1ccccc1C2=O
8. Clc1cc(-c2cc(Cl)c(Cl)c(Cl)c2)cc(Cl)c1Cl

[6.15, 4.38, 5.94, 7.73, 5.51, 6.63, 4.37, 7.41]

This collection of values is drawn from the OPERA property sets (Mansouri et al. 2018).
